src = ChEMBL document CHEMBL1201862

tested on: Hs-578T; assay: NCI tumour cell line growth inhibition, 48 h
The source made the active and inactive calls. No stated cut-off is given here; in the data, active = GI50 up to about 1.1 µM and inactive = higher.
quantity name: GI50

List reported GI50 for each of these compounds:
1. CCOC(=O)[C@@H]1OC(c2ccccc2)O[C@H]1C(=O)OCC
2. NC(=O)Nc1c(Cl)cc(S(N)(=O)=O)cc1Cl
3. N#CCCCCC12C3C(=O)N(c4ccccc4)C(=O)C3ON1O[C@@H]1C(=O)N(c3ccccc3)C(=O)[C@@H]12 (stereo partly drawn)

Response:
> 100 µM (inactive)
> 100 µM (inactive)
> 100 µM (inactive)

###

tested on: OVCAR-8; test: NCI tumour cell line growth inhibition, 48 h
Activity calls are given as the source filed them. No stated cut-off is given here; in the data, active = GI50 up to about 1.1 µM and inactive = higher.
Entry note: the call must match one of active, inactive

Would you please look over these solved cases?
compound | qualitative label
C[C@]12CCc3nonc3C1CC[C@@H]1C2CC[C@]2(C)C(=O)/C(=N\O)CC12 (stereo partly drawn) | inactive
Cc1nc2ccccc2c(=O)n1/N=C(\N=N\c1ccccc1)c1ccccc1Cl | inactive
CN(C)CCCOc1nc2c(c(=O)n(C)c(=O)n2C)n1C.SC1=NC=NC2=NC=NC12 | inactive
CC[N+](C)(C)c1ccc(C(=C2C=CC(=[N+](C)C)C=C2)c2ccc(N(C)C)cc2)cc1 | inactive
CC(=O)OC(/C=C/c1ccccc1)=C(OC(C)C)/C1=C(\c2ccccc2)SCCCSC1=O | inactive

Request: Hi, do you know how Cc1c(C(=O)O)n(C)c(=O)n(C)c1=O came out in this test?
Response: inactive

Request: What is the recorded call for this compound in the test? CN1C/C(=C\c2ccc(Cl)cc2)C(=O)/C(=C/c2ccc(Cl)cc2)C1
Response: active

Request: What did this assay record as the result for CCOC(=O)/C(C(C)=O)=C(\OC(C)=O)c1ccncc1C(=O)O ?
Response: inactive
